target.system: Nav 1.7 (Homo sapiens (Human), UniProt Q15858)
Sequence (Q15858 whole entry): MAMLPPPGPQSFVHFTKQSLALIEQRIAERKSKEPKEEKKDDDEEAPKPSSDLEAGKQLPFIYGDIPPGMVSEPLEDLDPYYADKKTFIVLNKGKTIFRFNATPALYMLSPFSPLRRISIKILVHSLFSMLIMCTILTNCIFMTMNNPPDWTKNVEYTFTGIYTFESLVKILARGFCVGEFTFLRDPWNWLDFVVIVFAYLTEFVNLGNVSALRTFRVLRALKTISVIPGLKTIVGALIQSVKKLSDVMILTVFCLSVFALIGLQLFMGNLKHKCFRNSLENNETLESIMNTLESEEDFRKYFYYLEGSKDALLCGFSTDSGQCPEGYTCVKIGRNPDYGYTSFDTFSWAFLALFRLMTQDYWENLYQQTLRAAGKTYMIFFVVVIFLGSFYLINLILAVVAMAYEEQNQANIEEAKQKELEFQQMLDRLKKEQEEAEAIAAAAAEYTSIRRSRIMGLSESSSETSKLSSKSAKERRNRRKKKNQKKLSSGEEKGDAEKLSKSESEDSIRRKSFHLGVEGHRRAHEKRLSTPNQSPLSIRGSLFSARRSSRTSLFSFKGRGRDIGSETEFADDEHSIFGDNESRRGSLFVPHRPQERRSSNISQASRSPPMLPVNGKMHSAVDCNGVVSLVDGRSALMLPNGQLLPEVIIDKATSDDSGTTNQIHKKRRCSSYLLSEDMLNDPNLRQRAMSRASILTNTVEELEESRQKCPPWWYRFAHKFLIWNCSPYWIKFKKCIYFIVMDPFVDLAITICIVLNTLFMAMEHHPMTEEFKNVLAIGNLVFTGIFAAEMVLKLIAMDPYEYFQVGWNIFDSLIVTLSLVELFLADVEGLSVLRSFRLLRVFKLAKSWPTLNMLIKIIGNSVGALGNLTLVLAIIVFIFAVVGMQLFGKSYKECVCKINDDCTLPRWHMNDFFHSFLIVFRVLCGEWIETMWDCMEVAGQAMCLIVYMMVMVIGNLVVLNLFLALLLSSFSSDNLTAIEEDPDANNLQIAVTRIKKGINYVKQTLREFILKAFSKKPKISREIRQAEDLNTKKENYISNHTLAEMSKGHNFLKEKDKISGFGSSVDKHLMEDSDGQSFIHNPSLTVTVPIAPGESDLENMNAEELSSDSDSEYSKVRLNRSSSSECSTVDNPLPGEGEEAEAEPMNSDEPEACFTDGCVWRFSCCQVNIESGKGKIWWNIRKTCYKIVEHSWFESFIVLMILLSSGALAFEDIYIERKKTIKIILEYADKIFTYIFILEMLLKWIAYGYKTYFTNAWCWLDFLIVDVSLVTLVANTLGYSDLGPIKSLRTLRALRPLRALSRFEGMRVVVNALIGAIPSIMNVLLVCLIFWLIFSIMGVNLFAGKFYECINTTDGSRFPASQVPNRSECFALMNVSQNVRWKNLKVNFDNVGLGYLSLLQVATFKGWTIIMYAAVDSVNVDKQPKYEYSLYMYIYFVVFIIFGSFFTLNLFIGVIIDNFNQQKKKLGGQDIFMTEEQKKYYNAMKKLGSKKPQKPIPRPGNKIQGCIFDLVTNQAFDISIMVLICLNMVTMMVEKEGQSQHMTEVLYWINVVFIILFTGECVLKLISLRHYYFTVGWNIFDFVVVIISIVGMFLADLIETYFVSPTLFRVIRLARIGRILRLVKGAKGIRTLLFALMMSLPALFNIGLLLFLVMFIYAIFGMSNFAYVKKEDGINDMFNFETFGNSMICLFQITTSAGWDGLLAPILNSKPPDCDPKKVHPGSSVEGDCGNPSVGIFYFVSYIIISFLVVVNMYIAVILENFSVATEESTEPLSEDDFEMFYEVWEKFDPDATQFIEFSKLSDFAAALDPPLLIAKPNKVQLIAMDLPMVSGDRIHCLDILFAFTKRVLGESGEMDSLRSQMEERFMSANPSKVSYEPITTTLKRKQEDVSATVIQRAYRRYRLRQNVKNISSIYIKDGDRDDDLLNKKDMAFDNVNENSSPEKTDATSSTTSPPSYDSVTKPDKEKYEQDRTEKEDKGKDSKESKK
experiment.notes: Nav 1.7 in vitro PX assay (PatchXpress whole cell voltage clamp)
Assay type: cell-based
condition.notes: 293 cells, human Nav1.7, partially inactivated state; read-out: Nav1.7 PX IC50 IP
Method: Nav 1.7 In Vitro PX Assay 293 cells stably transfected with human Nav1.7 were recorded in whole cell voltage clamp mode with the PatchXpress automated electrophysiology system (Molecular Devices, LLC, Sunnyvale, Calif.). Compound effects were measured on a partially inactivated state of the sodium channel. Cells were clamped to a holding potential yielding 20 to 50% inactivation. […] Peak sodium current was measured at the end of the compound addition period to determine percent inhibition. […]
endpoint.name: pIC50
Kindly note that pIC50 refers to -log10 of the concentration in mol/L and answer with the value alone.

compound	target.system	pIC50
COc1cc(Cl)c(Cl)cc1-c1nccc2cc(S(=O)(=O)Nc3nccs3)ccc12 [Example 177]	Nav 1.7 (Homo sapiens (Human), UniProt Q15858)	6.30

Data request, read-out pIC50, for COCCN1CCCC1c1nccc2cc(S(=O)(=O)Nc3nccs3)ccc12 (centres unmarked) [Example 246] 4.56

Record request: pIC50 value, item COc1cc(C#N)ccc1-c1ccnc2cc(S(=O)(=O)Nc3ccncn3)ccc12 [Example 280] 5.35

Reported pIC50 for COc1cc(C(F)(F)F)ccc1-c1cnnc2cc(S(=O)(=O)Nc3ccncn3)ccc12 [Example 260] : what is it? 5.90

Which pIC50 is reported for this compound? COc1cc(-c2ccc(F)cc2)ccc1-c1nccc2cc(S(=O)(=O)Nc3ccncn3)ccc12 [Example 350] 6.79

Which measured pIC50 value corresponds to COc1cc(-c2ccc(-c3nccc4cc(S(=O)(=O)Nc5ccncn5)ccc34)c(OC)c2)ccc1F [Example 484] ? 6.75

Fill in: pIC50 of COc1cc(C(F)(F)F)ccc1-c1nncc2cc(S(=O)(=O)Nc3nccs3)ccc12 [Example 253] is ___ 6.47

Any idea what pIC50 was measured for COc1ccc(C(F)(F)F)cc1-c1nccc2cc(S(=O)(=O)Nc3nccs3)ccc12 [Example 180] ? 6.36

----------
target.system: Nav 1.7 (Homo sapiens (Human))
experiment.notes: Nav 1.7 IWQ in vitro assay (IonWorks Quattro population patch-clamp)
Assay type: cell-based
condition.notes: 293 cells stably transfected with Nav 1.7; first part of table; read-out: Nav 1.7 IWQ IC50
Reported IC50 values for a set of molecules
Give a bare numeral; the unit nM is implied.

molecule	quantitative.result
O=S(=O)(Nc1ncns1)c1ccc2c(-c3ccc(Cl)cc3)nccc2c1	770
COc1cc(Cl)ccc1-c1cccc2cc(S(=O)(=O)Nc3ncco3)ccc12	225
CN1CC=C(c2cc(C(F)(F)F)ccc2-c2nccc3cc(S(=O)(=O)Nc4ccncn4)ccc23)CC1	1520

Requested read-out: IC50. Entry: O=S(=O)(Nc1ncco1)c1ccc2c(-c3ccc(C(F)(F)F)cc3Cl)cccc2c1 4870

Fill in: IC50 of O=S(=O)(Nc1ncns1)c1ccc2c(N3CCOC(c4ccccc4)C3)cccc2c1 (single isomer, unassigned) [14 (isomer 1)] is ___ 520

Fill in the blank: the reported IC50 of O=S(=O)(Nc1ccncn1)c1ccc2c(-c3ccc(C(F)(F)F)cc3Br)nccc2c1 is ____. 120

State the recorded IC50 for this entry: O=S(=O)(Nc1nccs1)c1ccc2c(N3CCCC3c3ccccc3)cccc2c1 (stereo not drawn) 1200

Can you look up the measured IC50 of O=S(=O)(Nc1ncns1)c1ccc2c(-c3ccncc3)cccc2c1 for me? 7760

----------
target.system: Nav 1.7 (Homo sapiens (Human))
experiment.notes: Nav 1.7 in vitro PX assay (PatchXpress whole cell voltage clamp)
Assay type: cell-based
condition.notes: 293 cells, human Nav1.7, partially inactivated state; read-out: Nav1.7 PX IC50 IP
Class boundaries, taken from values of IC50, are as follows: class 1 = under 200 nM, class 2 = from 200 nM up to 1000 nM, class 3 = 1000 nM and over

Solved cases below.
molecule	category
COc1cc(-c2cc(C)cc(Cl)c2)ccc1-c1nccc2cc(S(=O)(=O)Nc3ccncn3)ccc12	class 1
COc1cc(-c2cccc(F)c2)ccc1-c1nccc2cc(S(=O)(=O)Nc3ccncn3)ccc12 [Example 199, 2,2,2-TRIFLUOROACETATE]	class 1
O=S(=O)(Nc1ccncn1)c1ccc2c(OCc3nccn3Cc3ccc(Cl)cc3)nccc2c1	class 3

Given COc1cc(F)ccc1-c1ncc(F)c2cc(S(=O)(=O)Nc3ncns3)ccc12 , name the class its IC50 places it in. class 2

Consider COc1cc(C#N)ccc1-c1ncnc2cc(S(=O)(=O)Nc3nccs3)ccc12 . To which IC50 class does it belong? class 2

----------
target.system: UniProt:Q14524
experiment.notes: Nav 1.5 in vitro PX assay (PatchXpress whole cell voltage clamp)
Format: cell-based
condition.notes: 293 cells stably transfected with Nav 1.5; first part of table; read-out: Nav 1.5 PX IC50
Method: Nav 1.5 In Vitro PX Assay 293 cells stably transfected with Nav 1.5 were recorded in whole cell voltage clamp mode with the PatchXpress automated electrophysiology system according the manufacturer's specifications (Molecular Devices, LLC, Sunnyvale, Calif.). Cells were held at a holding potential of −50 mV to inactivate sodium channels. […] Peak sodium current was measured at the end of the compound addition period to determine percent inhibition. […]
endpoint.name: IC50

Consider the worked cases shown below.
item.smiles	result
O=S(=O)(Nc1ncns1)c1ccc2c(-c3ccccc3Cl)cccc2c1	21.3 µM
COc1cc(C(F)(F)F)ccc1-c1cccc2cc(S(=O)(=O)Nc3ncns3)ccc12	11.6 µM
NC(=O)c1cc(C(F)(F)F)ccc1-c1cccc2cc(S(=O)(=O)Nc3ncns3)ccc12	> 30 µM

Request - read-out IC50 | tested on UniProt:Q14524 | compound O=S(=O)(Nc1ncns1)c1ccc2c(-c3ccc(C(F)(F)F)cc3-c3cn[nH]c3)nccc2c1 > 30 µM

// fetch UniProt:Q14524 IC50 for N#Cc1cc(C(F)(F)F)ccc1-c1cccc2cc(S(=O)(=O)Nc3ncns3)ccc12 > 30 µM

Request: IC50, test system UniProt:Q14524, entry Cn1nccc1-c1cc(C(F)(F)F)ccc1-c1cccc2cc(S(=O)(=O)Nc3nccs3)ccc12 5.82 µM

----------
target.system: Nav 1.7 (Homo sapiens (Human), UniProt Q15858)
experiment.notes: Nav 1.7 in vitro PX assay (PatchXpress whole cell voltage clamp)
Type: cell-based
condition.notes: 293 cells, human Nav1.7, partially inactivated state; read-out: Nav1.7 PX IC50 IP
Each item that follows carries a reported pIC50.
Units for pIC50: none; it is -log10 of a concentration expressed in mol/L.

Find the recorded pIC50 belonging to COc1cc(-c2cccc(C#N)c2)ccc1-c1nccc2cc(S(=O)(=O)Nc3ccncn3)ccc12 [Example 200] and report it. 6.37

----------
Entries and their pIC50
target.system: Nav 1.5 (Homo sapiens (Human))
Sequence (Q14524 whole entry): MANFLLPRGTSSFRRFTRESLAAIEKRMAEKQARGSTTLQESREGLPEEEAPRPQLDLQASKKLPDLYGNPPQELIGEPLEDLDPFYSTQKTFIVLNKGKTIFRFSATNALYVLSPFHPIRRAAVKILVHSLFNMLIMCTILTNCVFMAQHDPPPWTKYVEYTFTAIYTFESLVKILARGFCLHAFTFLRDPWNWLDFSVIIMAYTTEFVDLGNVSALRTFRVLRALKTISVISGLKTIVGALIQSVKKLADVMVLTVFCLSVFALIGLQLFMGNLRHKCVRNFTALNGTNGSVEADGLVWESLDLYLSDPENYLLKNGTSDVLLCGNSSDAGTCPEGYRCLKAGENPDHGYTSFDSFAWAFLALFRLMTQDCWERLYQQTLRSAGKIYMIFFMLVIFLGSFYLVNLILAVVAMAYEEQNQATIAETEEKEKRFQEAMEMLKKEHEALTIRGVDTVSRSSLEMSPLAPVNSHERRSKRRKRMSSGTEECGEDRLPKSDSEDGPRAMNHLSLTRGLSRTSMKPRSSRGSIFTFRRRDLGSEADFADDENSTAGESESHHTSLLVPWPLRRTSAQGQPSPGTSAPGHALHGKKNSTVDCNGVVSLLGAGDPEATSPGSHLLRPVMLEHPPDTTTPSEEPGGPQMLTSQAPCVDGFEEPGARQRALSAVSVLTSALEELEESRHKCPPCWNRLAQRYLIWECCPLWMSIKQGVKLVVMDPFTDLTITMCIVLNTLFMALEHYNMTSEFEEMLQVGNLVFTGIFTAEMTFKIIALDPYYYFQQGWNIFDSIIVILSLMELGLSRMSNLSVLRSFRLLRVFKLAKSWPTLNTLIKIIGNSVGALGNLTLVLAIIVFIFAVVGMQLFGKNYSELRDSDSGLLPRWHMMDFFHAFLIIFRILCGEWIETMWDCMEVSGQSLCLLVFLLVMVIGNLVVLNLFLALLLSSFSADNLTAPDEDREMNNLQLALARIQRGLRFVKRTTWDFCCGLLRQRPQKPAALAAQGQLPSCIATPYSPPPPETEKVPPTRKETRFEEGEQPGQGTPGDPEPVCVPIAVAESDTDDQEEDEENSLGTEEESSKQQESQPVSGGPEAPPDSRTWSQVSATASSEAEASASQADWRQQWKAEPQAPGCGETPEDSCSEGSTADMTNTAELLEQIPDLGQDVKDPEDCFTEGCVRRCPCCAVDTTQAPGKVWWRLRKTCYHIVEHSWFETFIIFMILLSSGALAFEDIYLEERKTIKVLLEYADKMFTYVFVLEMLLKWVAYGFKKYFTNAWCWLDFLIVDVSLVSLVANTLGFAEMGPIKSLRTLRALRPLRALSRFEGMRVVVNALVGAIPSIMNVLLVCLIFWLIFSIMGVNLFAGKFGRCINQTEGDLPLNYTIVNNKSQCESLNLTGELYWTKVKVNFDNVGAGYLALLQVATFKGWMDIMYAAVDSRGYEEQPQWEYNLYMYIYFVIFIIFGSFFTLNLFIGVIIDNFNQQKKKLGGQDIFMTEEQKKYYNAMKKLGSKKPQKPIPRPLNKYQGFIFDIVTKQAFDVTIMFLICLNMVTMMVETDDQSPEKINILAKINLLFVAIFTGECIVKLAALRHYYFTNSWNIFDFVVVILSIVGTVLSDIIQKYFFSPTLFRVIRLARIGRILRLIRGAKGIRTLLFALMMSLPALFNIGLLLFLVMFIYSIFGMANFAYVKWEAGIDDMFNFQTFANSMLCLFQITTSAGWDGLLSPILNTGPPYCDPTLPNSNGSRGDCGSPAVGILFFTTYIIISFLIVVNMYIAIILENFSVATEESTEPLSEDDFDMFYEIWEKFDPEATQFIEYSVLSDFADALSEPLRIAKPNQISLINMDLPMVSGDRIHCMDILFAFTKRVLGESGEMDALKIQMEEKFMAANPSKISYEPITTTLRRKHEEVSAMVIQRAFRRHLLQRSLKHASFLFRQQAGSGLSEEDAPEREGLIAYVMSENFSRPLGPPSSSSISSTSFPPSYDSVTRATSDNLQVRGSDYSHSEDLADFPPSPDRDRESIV
experiment.notes: Nav 1.5 in vitro PX assay (PatchXpress whole cell voltage clamp)
Format: cell-based
condition.notes: 293 cells stably transfected with Nav 1.5; first part of table; read-out: Nav 1.5 PX IC50
Keep in mind that pIC50 stands for -log10 of concentration in molar terms.

item.smiles	pIC50
Cc1cc(Cl)ccc1-c1cccc2cc(S(=O)(=O)Nc3ncns3)ccc12	5.02
O=S(=O)(Nc1ncns1)c1ccc2c(-c3ccc(Cl)cc3)cccc2c1	5.22
O=S(=O)(Nc1ncns1)c1ccc2c(-c3ccc(C(F)(F)F)cc3Br)cccc2c1	4.68

Consider the additional molecule presented here.
Please give the measured pIC50 for this molecule: O=S(=O)(Nc1ncns1)c1ccc2c(-c3ccc(C(F)(F)F)cc3)cccc2c1 4.84

----------
target.system: Nav 1.7 (Homo sapiens (Human), UniProt Q15858)
experiment.notes: Nav 1.7 in vitro PX assay (PatchXpress whole cell voltage clamp)
Assay type: cell-based
condition.notes: 293 cells, human Nav1.7, partially inactivated state; read-out: Nav1.7 PX IC50 IP
endpoint.name: log10 of IC50 (log10 of the value in nM)
In our notation, the value equals log10 of IC50 in nM.

The cases that follow already have their log10 of IC50 on record.
compound	quantitative.result
N#CCOc1ccccc1-c1nccc2cc(S(=O)(=O)Nc3nccs3)ccc12 [Example 375, 2,2,2-TRIFLUOROACETATE]	2.74
Cc1cc(-c2cccc(F)c2)ccc1-c1nccc2cc(S(=O)(=O)Nc3ccncn3)ccc12	2.60
COc1nc(-c2ccc(F)c(F)c2)ccc1-c1nccc2cc(S(=O)(=O)Nc3ccncn3)ccc12	2.92
COc1cc(-c2cc(F)ccc2F)ccc1-c1nccc2cc(S(=O)(=O)Nc3ccncn3)ccc12	2.18
COc1cc(-c2cccnc2OC)ccc1-c1nccc2cc(S(=O)(=O)Nc3ccncn3)ccc12	2.89
COc1cc(-c2c(F)cccc2F)ccc1-c1nccc2cc(S(=O)(=O)Nc3ccncn3)ccc12	2.37

What value of log10 of IC50 has been recorded for this entry: O=S(=O)(Nc1nccs1)c1ccc2c(-c3ccccc3Cl)nccc2c1 3.11

Could you share which log10 of IC50 value was measured for COc1cc(C(F)(F)F)ccc1-c1nc(C)nc2cc(S(=O)(=O)Nc3ccncn3)ccc12 ? 3.41
